Values compiled from patent US20230348603A1.

# Target entity: T1, Human VSIG4-S-Fc (human)
# T1 construct: short isoform ECD fused to human Fc1; also called hVSIG4-S
# T1 sequence (chain, as listed by the source limits assumed): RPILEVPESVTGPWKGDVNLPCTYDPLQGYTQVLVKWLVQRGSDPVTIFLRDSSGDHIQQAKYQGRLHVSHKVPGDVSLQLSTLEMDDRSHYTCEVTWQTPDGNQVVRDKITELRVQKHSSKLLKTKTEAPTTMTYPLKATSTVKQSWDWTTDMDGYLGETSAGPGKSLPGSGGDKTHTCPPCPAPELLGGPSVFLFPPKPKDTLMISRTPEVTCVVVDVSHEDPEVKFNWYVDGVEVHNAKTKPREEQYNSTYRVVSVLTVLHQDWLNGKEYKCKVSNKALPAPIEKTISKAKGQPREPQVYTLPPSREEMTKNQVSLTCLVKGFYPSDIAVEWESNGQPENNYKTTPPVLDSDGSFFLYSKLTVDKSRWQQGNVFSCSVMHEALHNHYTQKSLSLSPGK
# Measurement description: ELISA, Fab P.E. 1:5 on coated antigen;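 note: mouse Fab P.E. samples in 1% skimmed milk PBS, bound to antigen-coated wells for 1 h at room temperature, read as absorbance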
Readout type: ELISA OD450 (OD450)
Give bare numbers, in OD450.

Returns the measured ELISA OD450 for the input binder. Input: 15A06 mouse Fab (periplasmic extract) (Fab, V domains shown, mouse Fab with C-terminal His6-c-myc tag) VH: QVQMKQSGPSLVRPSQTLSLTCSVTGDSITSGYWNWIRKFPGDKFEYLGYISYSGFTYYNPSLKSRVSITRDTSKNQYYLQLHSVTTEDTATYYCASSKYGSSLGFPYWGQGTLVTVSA VL: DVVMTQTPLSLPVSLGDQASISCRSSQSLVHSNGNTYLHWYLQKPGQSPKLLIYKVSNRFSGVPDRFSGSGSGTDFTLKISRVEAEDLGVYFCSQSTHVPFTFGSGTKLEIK
0.06
